# Tested on: MCF7
# ASSAY_SUMMARY: NCI tumour cell line growth inhibition, 48 h
Calls of active or inactive are those of the source. Cut-off read from the data, not from the text of the source: active = GI50 up to about 1.1 µM and inactive = higher.
Here, each record is paired with measured GI50 data.
OBSERVED_PROPERTY: GI50

- CN(CC(N)=O)C(=O)N(CCCl)N=O: > 100 µM (inactive)
- O=CN1CCN(c2ccc3ccc(O)nc3n2)CC1: > 100 µM (inactive)
- O=C(O/C=C\OC1CCCC1(c1ccccc1)c1ccccc1)c1ccccc1 (stereo not drawn): 2.6 µM (inactive)
- O=C(Cc1ccccc1)NN1C(=O)/C(=C\c2ccccc2O)S/C1=N\c1ccccc1: > 100 µM (inactive)
- COc1ccc(-c2c(-c3ccccc3)c(C)nc3[nH]c(=S)[nH]c(=S)c23)cc1OC: 33.8 µM (inactive)
- COC(=O)/C=C/c1ccccc1N=[S@](C)(=O)c1ccc(C)cc1: 13.4 µM (inactive)
- C=COC(=O)N1C2CCCC(Cl)(C(C)=O)C1CC2 (stereo not drawn): > 100 µM (inactive)
- CC(NNC(=O)c1ccncc1)c1ccccc1 (stereo not drawn): > 100 µM (inactive)
- CC(NC1=NCCO1)c1ccco1 (stereo not drawn): > 100 µM (inactive)
- C=C1C(=O)C23C(O)C1CC[C@H]2C12CCCC(C)(COC(C)=O)[C@H]1[C@H](O)[C@]3(O)OC2 (stereo partly drawn): 1.78 µM (inactive)
- CCC(C)[C@H]1C(=O)N=C(N)N1C(=O)OCc1ccccc1 (stereo partly drawn): > 100 µM (inactive)
- O=c1cc(-c2ccccc2)nc2[nH]ccn12: > 10 µM (inactive)
- Clc1ccc(/C=C/c2nc(-c3ccc(Cl)cc3)cn3c2nc2ccccc23)cc1: 50.5 µM (inactive)
- COC(=O)C1Cc2cc3c(cc2C1)CCC3: > 100 µM (inactive)
- COc1cc2c(cc1OC)C/C(=N\O)c1cc(OC)c(OC)cc1/C=C\2: 5.27 µM (inactive)
- C[N+]12C=CC=C1C(N1CCCC1)c1sc(-c3ccc(Cl)cc3)cc12 (stereo not drawn): 14.7 µM (inactive)
- COc1cccc(C2c3cc4c(cc3OC(NNC(N)=O)C2C)OCO4)c1O (stereo not drawn): 0.491 µM (active)
- CC(=O)Nc1ccc(NS(=O)(=O)c2ccc3nc(C)n(NS(=O)(=O)c4ccc(NC(C)=O)cc4)c(=O)c3c2)cc1: > 100 µM (inactive)
- COc1ccc2c(c1)C(=O)CC(C(N)=O)C2 (stereo not drawn): > 100 µM (inactive)
- C/C(=N\NC(=O)c1ccncc1)c1ccc2ccccc2c1O: 1.35 µM (inactive)
- O=C(O)CCN1C(=S)CSC1=S: 67.5 µM (inactive)
- CC(=O)O/N=C/c1c2ccccc2cc2ccccc12: 78.2 µM (inactive)
- CCOP(=O)(OCC)C(Cc1cn(S(=O)(=O)c2ccc(C)cc2)cn1)C(=O)O (stereo not drawn): > 100 µM (inactive)

* * *

# Tested on: M14
# ASSAY_SUMMARY: NCI tumour cell line growth inhibition, 48 h
The source made the active and inactive calls. Rule as the data show it: active = GI50 up to about 1.1 µM and inactive = higher. Non-standard residues stand in square brackets, D forms with d. Residues, ends and D or L forms follow the SMILES beside them. *: point of attachment. X30 = COC1=CC(=O)N(C(=O)[C@@H](O*)C(C)C)[C@H]1Cc1ccccc1; NMeL = CN[C@@H](CC(C)C)C(=O)O; Cbz = O=C(OCc1ccccc1)*
Outcome codes: active, inactive

• CCCCCCC(=O)O[C@H]1CC[C@H]2[C@@H]3CCC4C/C(=N/NC(=O)c5cccc6c(=O)c7ccccc7[nH]c56)C=C(C)[C@]4(C)[C@H]3CC[C@]12C (some centres undefined) = inactive
• C=C1c2nc3ccccc3n2C=C(c2ccc(OC)cc2)N1c1ccc(OCCN2CCOCC2)cc1 = inactive
• Brc1nc2c3ccccc3ncn2c1Br = inactive
• CC(C)(CO[C@H]1C[C@H]2CC[C@@]1(C)C2(C)C)[N+](=O)[O-] = inactive
• O=C(Nc1ccc(/N=N/c2ccccc2)cc1)Sc1ccccc1C(=O)O = inactive
• Cc1cc(S(=O)(=O)Nc2nc3cccnc3[nH]2)c(S)cc1Cl = inactive
• COC1=CC(=O)N(C(=O)[C@@H](OC(=O)[C@@H]2CCCN2C(=O)[C@@H]2CCCN2C(=O)[C@H](CC(C)C)N(C)C(=O)[C@@H](NC(=O)[C@@H](NC(=O)OCc2ccccc2)C(C)C)C(C)C)C(C)C)[C@H]1Cc1ccccc1 (Cbz-VV[NMeL]PP-X30) = inactive
• Cc1cccc(C)c1NC(=O)CCc1nnc2s/c(=C\c3ccc(N(C)C)cc3)c(=O)n12 = inactive
• O=C(C/C=C/c1ccccc1)c1ccccc1 = inactive
• COc1cccc(C2c3cc4c(cc3OC(NNC(N)=O)C2C)OCO4)c1O (centres undefined) = active
• O=C(CCN1CCN2c3ccccc3CCC2C1)c1ccc(F)cc1 (centres undefined) = inactive
• CCn1c(=O)c2c3cc(OC(C)=O)ccc3oc2c2ccc(OC(C)=O)cc21 = inactive
• NCCCCN(CCCN)C(=O)c1ccccc1 = inactive
• CC(=O)O[C@H]1C=CC(=O)C(C)CC1C (some centres undefined) = inactive
• CCSc1nnc(CSc2nc(-c3ccccc3)c(-c3ccccc3)[nH]2)n1-c1ccccc1 = inactive
• COc1ccc(/C=C2/SC(c3c(O)ccc4ccccc34)N(NC(=O)CCCCCCCCC(=O)NN3C(=O)/C(=C\c4ccc(OC)c(OC)c4)SC3c3c(O)ccc4ccccc34)C2=O)cc1OC (centres undefined) = active
• CC(C)(C)C(=O)c1c(O)c2ccccc2c2ccccc2c1=O = inactive
• O=C1C2CCN(CC2)C1(CO)CO = inactive
• CC(=O)Oc1ccc(O)c(O)c1C/C=C(\C)CC/C=C(\C)CC/C=C(\C)CCC=C(C)C = inactive
• C/C(CC(O)(C(F)(F)F)C(F)(F)F)=N\NC(N)=O = inactive
• CC(=O)C1C(=O)C(=O)N(CCN2C(=O)C(=O)C(C(C)=O)C2=O)C1=O (centres undefined) = inactive
• O=c1cc(-c2ccccc2)nc2[nH]ccn12 = inactive
• c1ccc(/N=C2\c3ccccc3CN2c2ccccc2)cc1 = inactive
• CC(=O)O/N=C/c1c2ccccc2cc2ccccc12 = inactive
• Cc1c(F)c(N)c2c(=O)cc(-c3ccc(NC(=O)[C@@H](N)CCCCN)c(F)c3)oc2c1F = inactive
• Cc1ccc(P(c2ccc(C)cc2)c2ccc(C)cc2)cc1 = inactive
• COC(=O)C1Cc2cc3c(cc2C1)CCC3 = inactive
• COc1ccc2c(c1)C(=O)CC(C(N)=O)C2 (centres undefined) = inactive
• CC(=O)OC[C@]12CCC3[C@@]4(C)CCCC(C)(C)C4CC[C@@]3(C)C1CC(C1=CC(=O)OC1O)O2 (some centres undefined) = inactive
• CCOC(=O)Nc1ccc(S(=O)(=O)OC)cc1.CCOC(=O)Nc1ccc(S(=O)(=O)OC)cc1.Nc1ncnc2c1ncn2C1OC(CO)C(O)C1O (centres undefined) = inactive
• CC(=O)CCC1(c2ccccc2)OC(=O)C(C#N)=C1c1ccccc1 (centres undefined) = inactive
• O=C1N(C2CCCCC2)C(=O)N1C1CCCCC1 = inactive
• CCOc1cc(C2CC(c3ccc(NS(=O)(=O)c4cc([N+](=O)[O-])ccc4C)cc3)=NN2)ccc1O (centres undefined) = inactive
• COc1ccc(CCN2C(=O)C=CC2=O)cc1OC = inactive
• Cc1cc2c(cc1C)C(=O)C1(C2)Cc2c(C)ccc(C)c2C1=O (centres undefined) = inactive
• O=[N+]([O-])c1cc(C2ON=C(c3ccccc3)N2C23CC4CC(CC(C4)C2)C3)ccc1Cl (centres undefined) = inactive
• C[C@]12CC/C(=N\O)C=C1CC[C@@H]1C2CC[C@@]2(C)C1CC[C@@H]2OC1CCCCO1 (some centres undefined) = inactive
• N=C1/C(=C/c2ccc(F)cc2)C(=O)N=C2SC=NN12 = inactive
• CC(=O)c1cc2c3c(c1)c1cc4c(cc1c(=O)n3CC2)OCO4 = inactive

* * *

# Test system: SK-OV-3
# ASSAY_SUMMARY: NCI tumour cell line growth inhibition, 48 h
The source made the active and inactive calls. Rule as the data show it: active = GI50 up to about 1.1 µM and inactive = higher. Non-standard residues stand in square brackets, D forms with d. Residues, ends and D or L forms follow the SMILES beside them. *: point of attachment. X30 = COC1=CC(=O)N(C(=O)[C@@H](O*)C(C)C)[C@H]1Cc1ccccc1; NMeL = CN[C@@H](CC(C)C)C(=O)O; Cbz = O=C(OCc1ccccc1)*
Outcome codes: YES = active, NO = inactive

* COc1cc(C=O)cc(/C=N/c2ccc(Br)cc2)c1O | NO
* CC1(C)[C@@H](Cn2cnc3c(N)ncnc32)CC[C@@]1(C)CO | NO
* CC(=O)c1cc2c3c(c1)c1cc4c(cc1c(=O)n3CC2)OCO4 | NO
* O=S(=O)(O)Nc1ccc(-c2nc3ccccc3s2)cc1Cl | NO
* O=C1C2CCN(CC2)C1(CO)CO | NO
* COC1=CC(=O)N(C(=O)[C@@H](OC(=O)[C@@H]2CCCN2C(=O)[C@@H]2CCCN2C(=O)[C@H](CC(C)C)N(C)C(=O)[C@@H](NC(=O)[C@@H](NC(=O)OCc2ccccc2)C(C)C)C(C)C)C(C)C)[C@H]1Cc1ccccc1 (Cbz-VV[NMeL]PP-X30) | NO
* O=S(OC12CC3CC(CC(C3)C1)C2)c1cc(Cl)cc(Cl)c1OCc1ccccc1 (stereo not drawn) | NO
* COc1ccc(O)c(/C=N/NC(=S)N2CCCCC2)c1 | NO
* C/C(=N\NC(=S)N1CC2CCC(CC2)C1)c1cccc(C)n1 | YES
* CCC(C)(O)c1cn(-c2ccc(Cl)cc2)nn1 (stereo not drawn) | NO
* C=C(C)c1cc(C(C)(C)C)cc(C(=C)C)c1S(C)(=O)=O | NO
* COc1ccc(NC(=O)CC/C(CC(=O)c2ccco2)=N/NC(=O)C(N)=O)cc1 | NO
* N=C1/C(=C/c2ccc(F)cc2)C(=O)N=C2SC=NN12 | NO
